Sourced from the supplement of paper PMC6555819

Tested on: PPARg:RXRa DBDmut IVT, anti-RXR (DBD mutation: RXRa K156A/R161A, NR concentration 270 nM, RXRa partner concentration 90 nM)
Assay Text: PBM binding z-score (relative to random genomic background probes); higher = stronger binding; sequences stand for … in GC…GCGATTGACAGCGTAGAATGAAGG
Given measured PBM binding z-score, output 1.0 if it is greater than or equal to 0.4 and 0.0 if not.

Determine whether this sequence has PBM binding z-score no lower than 0.4: `ACTTATGGGTCAACGAGGTTATAGCACGCGTATA`
1.0

Determine whether this sequence has PBM binding z-score no lower than 0.4: `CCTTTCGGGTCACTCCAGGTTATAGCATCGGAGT`
1.0

Determine whether this sequence has PBM binding z-score no lower than 0.4: `CCTAGTTGGTCGGGAGGTCACACACCGGATATGA`
0.0

Determine whether this sequence has PBM binding z-score no lower than 0.4: `TCGAGTTGGTTACCAATGGGGCATTCAGCTTTCT`
1.0

Determine whether this sequence has PBM binding z-score no lower than 0.4: `ATTGAAAGGTCGTGAGGTGAGTATACAGAAAGGC`
1.0

Determine whether this sequence has PBM binding z-score no lower than 0.4: `ATCTCAAGGTAAGACTCAGTTCAGTGAAGAACGC`
0.0

Determine whether this sequence has PBM binding z-score no lower than 0.4: `AGAACGAGGGCACCCTGAGTTGATAGCAGAGTAG`
1.0

Determine whether this sequence has PBM binding z-score no lower than 0.4: `ATACCAAGGTGCTCGTGAGGTCGTTGATACTAAC`
0.0

Determine whether this sequence has PBM binding z-score no lower than 0.4: `ATCGAAAGGCCGACGAGGTGAGTATACACCGTTT`
0.0
